As shown below, each of these binders has a reported IC50, FLIPR calcium mobilisation value.
TARGET OF ASSAY: human nerve growth factor (beta-NGF) (human, UniProt P01138 122-241)
Sequence (P01138 122-241): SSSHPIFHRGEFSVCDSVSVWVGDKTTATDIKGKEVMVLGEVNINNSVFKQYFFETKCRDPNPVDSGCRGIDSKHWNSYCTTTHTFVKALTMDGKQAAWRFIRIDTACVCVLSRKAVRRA
PROTOCOL DESCRIPTION: cell-based or functional assay

binder="1150F1 human IgG4 (antibody, V domains shown) VH: EVQLVQSGAEVKKPGSSVKVSCKASGGTFSTYGISWVRQAPGQGLEWIGGIIPIFDTGNSAQSFQDRVTITADESTSTAYMEVGSLRSDDTAVYYCASSSRIYDLNPSLTAYYDMDVWGHGTMVTVSS VL: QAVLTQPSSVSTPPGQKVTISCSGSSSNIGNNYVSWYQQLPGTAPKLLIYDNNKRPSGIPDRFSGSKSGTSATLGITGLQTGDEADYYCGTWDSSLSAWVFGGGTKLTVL" readout_value="0.32 nM"

Alright, here's another binder for you.
Note IC50, FLIPR calcium mobilisation for the binder shown: 1230D8 human IgG4 (antibody, V domains shown) VH: QMQLVQSGAEVKKTGSSVKVSCKASGYTFPYHYLHWVRQAPGQGLEWMGGIIPIFGTTNYAQRFQDRVTITADESTSTAYMEFSSLRSEDTAVYYCASADYVWESYHPATSLSLWGRGTMVTVSS VL: QSVLTQPPSVSAAPGQKVTISCPGSTSNIGNNYVSWYQQRPGKAPKLMIYDVSKRPSGVPDRFSGSKSGNSASLDISELQSEDEADYYCAAWDDSLSEFLFGTGTKLTVL 0.31 nM
